# Read-out: Human Leukocyte Antigen - DR isotype (HLADR), HLA-DRA (gene 3122)
# TEST_DESCRIPTION: BSK_3C_HLADR: BioMAP Diversity Plus: 3C Assay for Human Leukocyte Antigen - DR isotype (HLADR) Biomarker Activity (AID 2283019);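 as to outcome: ELISA of cell-surface HLA-DR on HUVEC 24 h after dosing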
# RUN_PARAMETERS: primary human endothelial cells (HUVEC); actives raise or lower the signal
Activity calls are given as the source filed them. The calls were made as follows: active = hit-call score of the fitted dose curve at least 0.9, where 1 is the maximum; inactive = score below 0.9.
Write down the outcome that applies. Available outcomes: active, inactive

(Q) Hello, I am checking results. What call was entered for `C=CCOC(=O)CCC1CCCCC1` ?
(A) inactive

(Q) I'd appreciate the recorded outcome for `CC[Si](OC(C)=O)(OC(C)=O)OC(C)=O` from this test.
(A) inactive

(Q) Assay outcome for `C#C[C@]1(O)CC[C@H]2[C@@H]3CCC4=Cc5oncc5C[C@]4(C)[C@H]3CC[C@@]21C` : what was it?
(A) active

(Q) Tell me the recorded outcome of this test for CC1CCC(C(C)CS)CC1S (stereo unspecified) .
(A) active

(Q) Query: recorded result category for CN(CCOc1ccc(CC2SC(=O)NC2=O)cc1)c1ccccn1 (stereo unspecified) in this test
(A) active

(Q) Which outcome did this test record for the compound `O=[N+]([O-])c1cc(C(F)(F)F)ccc1Cl` ?
(A) inactive

(Q) Test call, this compound: BrC1CCC(Br)C(Br)CCC(Br)C(Br)CCC1Br (stereo unspecified)
(A) active

(Q) # fetch the recorded call for `COC(=O)c1ccc(C)cc1` here
(A) inactive

(Q) What classification did `CC(=O)/C=C/C1=C(C)CCCC1(C)C` end up with in this test?
(A) inactive

(Q) What classification did `Cc1ccc(O)c(C(C)(C)C)c1` end up with in this test?
(A) active

(Q) Which outcome was assigned to CCCCCCCCCCCCCCCCCC(=O)OCC(CC)CCCC (stereo unspecified) in this test?
(A) inactive

* * *

# ASSAYED_SYSTEM: Hypoxia-inducible factor 1-alpha (Homo sapiens) (UniProt Q16665)
# Sequence (Q16665 whole entry, looked up): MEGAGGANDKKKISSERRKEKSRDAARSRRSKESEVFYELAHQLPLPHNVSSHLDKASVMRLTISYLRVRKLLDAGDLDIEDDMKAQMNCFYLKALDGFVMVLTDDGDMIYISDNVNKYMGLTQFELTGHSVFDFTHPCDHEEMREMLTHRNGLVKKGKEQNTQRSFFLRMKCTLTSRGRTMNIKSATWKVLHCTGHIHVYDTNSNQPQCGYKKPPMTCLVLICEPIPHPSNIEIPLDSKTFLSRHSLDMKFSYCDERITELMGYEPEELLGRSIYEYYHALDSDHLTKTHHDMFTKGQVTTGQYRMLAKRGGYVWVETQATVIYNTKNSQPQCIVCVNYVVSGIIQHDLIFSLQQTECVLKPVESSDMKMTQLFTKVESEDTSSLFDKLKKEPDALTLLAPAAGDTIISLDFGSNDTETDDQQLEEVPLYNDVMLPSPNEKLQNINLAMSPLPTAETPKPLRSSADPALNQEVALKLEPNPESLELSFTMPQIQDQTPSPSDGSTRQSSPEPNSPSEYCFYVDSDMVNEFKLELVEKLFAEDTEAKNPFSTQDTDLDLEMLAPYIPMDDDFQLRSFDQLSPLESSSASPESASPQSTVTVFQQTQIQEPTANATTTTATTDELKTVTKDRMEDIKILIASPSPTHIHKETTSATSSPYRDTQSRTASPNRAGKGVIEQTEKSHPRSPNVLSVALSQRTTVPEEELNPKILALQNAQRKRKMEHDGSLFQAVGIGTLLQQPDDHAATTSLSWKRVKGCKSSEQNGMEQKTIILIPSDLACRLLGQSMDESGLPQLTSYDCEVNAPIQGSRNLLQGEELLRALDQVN
# TEST_DESCRIPTION: ATG_HIF1a_CIS: Attagene CIS-FACTORIAL HepG2 Assay for human Hypoxia Inducible Factor 1 (HIF1A) (AID 2282951)
# RUN_PARAMETERS: HepG2 Attagene cis-factorial HIF1a reporter transcription; actives raise or lower the signal
Activity calls are given as the source filed them. How the source made its calls: active means hit-call score of the fitted dose curve at least 0.9, where 1 is the maximum; inactive means score below 0.9.
In this exercise, the only acceptable responses are 1.0 = active, 0.0 = inactive

(Q) Give the logged outcome of this assay for the following molecule: C=C(C)C1CCC(C)CC1O (centres undefined)
(A) 0.0

(Q) Recorded test call requested for OC1OC[C@@H](O)[C@H](O)[C@H]1O (some centres undefined)
(A) 0.0

(Q) Entry `CC[Si](OC(C)=O)(OC(C)=O)OC(C)=O` : call = ?
(A) 0.0

(Q) Which outcome was entered for the molecule `COC(=O)OC` in this test?
(A) 0.0

(Q) What was the test verdict on `c1ccc2sc(SN(C3CCCCC3)C3CCCCC3)nc2c1` ?
(A) 0.0

(Q) Dear all, I need the recorded test outcome for `NCCCN1CCOCC1` , thank you.
(A) 0.0

(Q) What is the recorded call for this molecule in the test? `CCCCN`
(A) 0.0

(Q) For this molecule, state the assay outcome: `Nc1ccc(S(=O)(=O)O)c(N)c1`
(A) 0.0

(Q) Answer briefly: the call reported for CC(O)C(C)O (centres undefined) in this assay.
(A) 0.0

(Q) // return assay outcome for CC1COc2ccccc2N1C(=O)C(Cl)Cl (centres undefined)
(A) 0.0

(Q) What did this assay record as the result for `C=C(C)C(=O)Nc1ccc(Cl)c(Cl)c1` ?
(A) 0.0

(Q) Any idea what this test logged for `CCCCCCCCCCCCN` ?
(A) 0.0

(Q) Please let me know the test result on file for `O=[N+]([O-])c1ccc(Nc2ccc(Nc3ccccc3)c(S(=O)(=O)O)c2)c([N+](=O)[O-])c1` .
(A) 0.0

(Q) Tell me the assay call for `COc1cc(C=O)ccc1OC(=O)C(C)C` please.
(A) 0.0

(Q) Per the records of this test, what outcome belongs to `CSc1nc(NC2CC2)nc(NC(C)(C)C)n1` ?
(A) 0.0

(Q) I would be grateful if you could indicate the recorded call for `CC(C)(COC(=O)c1ccccc1)COC(=O)c1ccccc1` .
(A) 1.0

(Q) Hey, what did the test say about `Cc1ccc(C=O)cc1` ?
(A) 0.0

(Q) State the result this test recorded for `CCCCCCOC(=O)CCCCC` .
(A) 0.0

(Q) Can you look up the reported call for `O=C(O)c1cccc(C(F)(F)F)c1` for me?
(A) 0.0

(Q) Hi, do you know how `Cc1ccc(C=O)s1` came out in this test?
(A) 0.0

(Q) For this molecule, state the assay outcome: `CC(=O)C(=O)O`
(A) 1.0

(Q) For `CCCCOCCOCCSC#N` , which call appears in the assay record?
(A) 0.0

(Q) Dear all, I need the recorded test outcome for `CCCCCCCCCCCCSC` , thank you.
(A) 0.0

(Q) Which outcome was entered for the molecule `O=C1O[C@@H]2[C@@H](O)[C@H](O)O[C@@H]2[C@H]1O` in this test?
(A) 0.0

* * *

# Read-out: Tissue Factor, F3 (gene 2152)
# TEST_DESCRIPTION: BSK_LPS_TissueFactor: BioMAP Diversity Plus: LPS Assay for Tissue Factor Biomarker Activity (AID 2283084)
# RUN_PARAMETERS: primary human HUVEC with PBMC; actives raise or lower the signal
The source made the active and inactive calls. How the source made its calls: active means hit-call score of the fitted dose curve at least 0.9, where 1 is the maximum; inactive means score below 0.9.
OBSERVATION_TYPE: outcome

> print(dat)
                    structure.smiles.string  assay.result
1                    CNC[C@H](O)c1cccc(O)c1      inactive
2                                   NCCNCCN      inactive
3  O=C(O)c1cn(-c2ccc(F)cc2)c2cc(N3CCNCC3)c(F)cc2c1=O      inactive

* * *

# TEST_DESCRIPTION: ATG_Oct_MLP_CIS: Attagene CIS-FACTORIAL HepG2 Assay for human Octamer-Binding Transcription Factor (Oct) (AID 2282993)
# RUN_PARAMETERS: HepG2 Attagene cis-factorial Oct reporter, mRNA; actives raise or lower the signal
Activity calls are given as the source filed them. How the source made its calls: active means hit-call score of the fitted dose curve at least 0.9, where 1 is the maximum; inactive means score below 0.9.
Can you answer with just one of these options? active, inactive

(Q) Per the assay record, what outcome was assigned to `COc1ccc(O)cc1` ?
(A) inactive

(Q) Assay outcome for `OCCCCCO` : what was it?
(A) inactive

(Q) Any idea what this test logged for `CC1(C)C(=O)N(Br)C(=O)N1Cl` ?
(A) inactive

(Q) Write down the call the test reported for this compound. Item: `C=C(C)[C@@H]1CC[C@@H](C)C[C@@H]1O`
(A) inactive

(Q) Could you kindly confirm the outcome this assay logged for `CC1(C)CCC(C)(C)c2cc(C(=O)Nc3ccc(C(=O)O)cc3)ccc21` ?
(A) active

(Q) For `C[C@H]1C[C@H]2[C@@H]3CCC4=CC(=O)C=C[C@]4(C)[C@@]3(F)[C@@H](O)C[C@]2(C)[C@@]1(O)C(=O)COP(=O)(O)O` , what call appears in the results of this test?
(A) inactive

(Q) Entry `Nc1cc([N+](=O)[O-])ccc1O` : call = ?
(A) inactive

(Q) Outcome? CCCCCCCCCCCCCCCCCC(=O)OCC(CC)CCCC (stereo not given)
(A) inactive

(Q) What did this assay record as the result for CC(C=O)Cc1ccc(C(C)C)cc1 (stereo not given) ?
(A) inactive

(Q) Status in this test for CC1CCC2CC1C2(C)C (stereo not given) ?
(A) inactive

(Q) Would you mind telling me which call this test gave `CC(C)[C@H]1CC[C@@H](C)CC1=O` ?
(A) inactive

(Q) Outcome logged for `CC(=O)C(C)=O` in this assay:
(A) inactive

(Q) Please share the test call associated with BrC1CCC(Br)C(Br)CCC(Br)C(Br)CCC1Br (stereo not given) .
(A) active

(Q) Per the assay record, what outcome was assigned to `CCCCNC(=O)NS(=O)(=O)c1ccc(N)cc1` ?
(A) inactive

(Q) How did this test come out for `Cc1ccc2n[nH]nc2c1` ?
(A) inactive

(Q) Record request — test call for `C=C(C)C(=O)Nc1ccc(Cl)c(Cl)c1`
(A) active

(Q) Per the records of this test, what outcome belongs to COc1ccnc(CS(=O)c2nc3cc(OC(F)F)ccc3[nH]2)c1OC (stereo not given) ?
(A) inactive

(Q) I would be grateful if you could indicate the recorded call for CCC(C(=O)NC(N)=O)c1ccccc1 (stereo not given) .
(A) inactive

(Q) Record request — test call for `CCCC(=O)c1cc(O)c(O)cc1O`
(A) inactive

(Q) // return assay outcome for `CC(=O)OCc1ccc2c(c1)OCO2`
(A) inactive

(Q) Dear colleague, could you share the recorded outcome for `O=C(O)c1cn(-c2ccc(F)cc2)c2cc(N3CCNCC3)c(F)cc2c1=O` when you have a moment?
(A) inactive

(Q) Which outcome did this test record for the compound `CCOC(=O)c1ccccc1OC` ?
(A) inactive

(Q) How did this test come out for `O=C1NC(=O)c2ccccc21` ?
(A) inactive

(Q) // outcome(item) with item = `O=CCCc1ccccc1`
(A) inactive

(Q) Each compound tested received a call. Report the one for `C=C[C@@H](C)CCC=C(C)C` .
(A) inactive

(Q) Recorded call for `O=C(O)c1cccc([N+](=O)[O-])c1` ?
(A) inactive

(Q) Hi team, can someone confirm the assay call for `C=COCCOCCOCCOC=C` ?
(A) inactive

(Q) Recorded test outcome, item `Cc1ccc(C=O)cc1`
(A) inactive

(Q) For `Cc1cc(C2(c3cc(C)c(O)cc3C)OS(=O)(=O)c3ccccc32)c(C)cc1O` , which call appears in the assay record?
(A) inactive

(Q) Which outcome was assigned to `Clc1ccc(Cl)c(Cl)c1Cl` in this test?
(A) inactive

(Q) Assay result, entry `CC(=O)Nc1ccc(CC(=O)O)cc1` — outcome?
(A) inactive

(Q) What is the recorded call for this compound in the test? `Nc1cc(N)cc(C(=O)O)c1`
(A) inactive

(Q) Tell me the recorded outcome of this test for CCC(C)(O)CCC=C(C)C (stereo not given) .
(A) inactive

(Q) I'd appreciate the recorded outcome for `O=Nc1ccc(Nc2ccccc2)cc1` from this test.
(A) active

(Q) Given `Cc1ccc(C=O)s1` , state the outcome it received in this test.
(A) inactive

(Q) Hi, do you know how CC1=CCC(O)(C(C)C)CC1 (stereo not given) came out in this test?
(A) inactive

(Q) Which outcome did this test record for the compound `O=C1CCCCCCCCCCOCCCCO1` ?
(A) inactive

(Q) Could you check what this test reported for `CC(C)(CO)[N+](=O)[O-]` ?
(A) inactive

(Q) Could you please tell me the result logged for `C=C(C)C(=O)OCCOC(=O)CC(C)=O` in this assay?
(A) inactive

(Q) Per the assay record, what outcome was assigned to CN(CCOc1ccc(CC2SC(=O)NC2=O)cc1)c1ccccn1 (stereo not given) ?
(A) inactive

(Q) Answer briefly: the call reported for `CCCc1c(OCCCOc2ccc(OCC(=O)O)cc2)ccc(C(C)=O)c1O` in this assay.
(A) inactive

(Q) Please share the test call associated with `CN(C)c1ccc(O)c2c1C[C@H]1C[C@H]3[C@H](N(C)C)C(=O)C(C(N)=O)=C(O)[C@@]3(O)C(=O)C1=C2O` .
(A) inactive

(Q) Hey, what did the test say about `Nc1ccc(F)c([N+](=O)[O-])c1` ?
(A) inactive

(Q) Returns: the outcome recorded for `O=P(c1ccccc1)(c1ccccc1)c1ccccc1` in this assay.
(A) inactive

(Q) Can you look up the reported call for `CCCC/C=C\CCCCCCCCCC=O` for me?
(A) inactive

(Q) Dear colleague, could you share the recorded outcome for `Nc1cc(Cl)c(O)c(Cl)c1` when you have a moment?
(A) active

(Q) Status in this test for `Cc1c(Cl)c(=O)oc2cc(O)ccc12` ?
(A) inactive

(Q) What did this assay record as the result for CCCCC(CC)COC(=O)/C=C\C(=O)OCC(CC)CCCC (stereo not given) ?
(A) inactive

(Q) // outcome(item) with item = `O=S(=O)(O)c1cccc2c(S(=O)(=O)O)cccc12`
(A) inactive

(Q) Look up the recorded call for `OCCOCCOCCOCCO` in this test.
(A) inactive

(Q) In this assay, the call recorded for `CCCCCCCCC=O` was what?
(A) inactive

(Q) Fill in: this test's call for `O=C(Cl)c1cccc(C(=O)Cl)c1` is ___
(A) inactive

(Q) Which outcome was entered for the compound `CNC[C@H](O)c1cccc(O)c1` in this test?
(A) inactive

(Q) Recorded call for `COC(=O)OC` ?
(A) inactive

(Q) Name the outcome recorded for `Cc1ncc([N+](=O)[O-])n1C` in the assay.
(A) inactive
